# System: NCI-H522 lung
# Procedure Details: NCI-60 one-dose screen, 48 h (100 = growth as untreated, 0 = no growth, -100 = all killed)
# Reported Conditions: 10 µM unless noted
This is part of a sample that, as a whole, favours compounds with a hit. Of some 83,000 tested, about 20% had one in any assay.
Ranges used to classify growth: I: < 20%; II: ≥ 20% and < 80%; III: ≥ 80%

GET /class?item= O=C(Cn1c(/C=C/c2ccccc2)nc2ccccc2c1=O)Nc1ccccc1
II

###

# System: MALME-3M melanoma
# Procedure Details: NCI-60 one-dose screen, 48 h (100 = growth as untreated, 0 = no growth, -100 = all killed)
# Reported Conditions: 10 µM unless noted
About 83,000 compounds went through this panel and 20% of them were active in at least one assay; those are over-represented in the sample as a whole.
Endpoint: growth (%)
Output spec: scalar in %, unitless text.

- Compound: "Cc1occc1C(=O)NN1C(=O)/C(=C/C=C/c2ccc([N+](=O)[O-])o2)SC1=S"
  Readout Value: -78.6
- Compound: "COc1ccc(C(=O)/C=C/c2ccccc2Br)cc1S(N)(=O)=O"
  Readout Value: 62.3
- Compound: "Nc1nc(C(F)(F)F)cs1"
  Readout Value: 103
- Compound: "O=C(O)Cn1c(O)c(/C=C2/C=c3cc4c(cc3=NC2=O)OCCO4)sc1=S"
  Readout Value: 100
- Compound: "CN(C)c1nc(NCCNS(=O)(=O)c2ccc(C3=Nc4c(N)nc(N)nc4NC(c4ccc(F)cc4)C3)cc2)nc(Nc2ccc(F)cc2)n1 (stereo unspecified)"
  Readout Value: 47.1
- Compound: "O=C(Cn1c(/C=C/c2ccccc2)nc2ccccc2c1=O)Nc1ccc(Cl)cc1"
  Readout Value: 59.1

Which value of growth has been reported for Cc1ccc(NCC(=O)Cn2cc(COc3ccc(C=Nc4cnc5ccccc5c4)cc3)nn2)cc1 in the records?
102

Try this compound too: CCCCn1c(O)c(N=Nc2nc(-c3cc4ccccc4oc3=O)cs2)c2cc(Br)ccc21
105

Then what about the compound CC1=C(C(=O)c2ccccc2)C(c2cccc3ccccc23)n2c(nc3ccccc32)N1 (stereo unspecified) ?
57.4

Same question for COc1cc(OC)cc(C(=O)Nc2cccc(-c3cn(-c4ccc(S(N)(=O)=O)cc4)nn3)c2)c1 please.
79.9

Another: COc1ccc(C(=O)/C=C/c2c(F)cccc2Cl)cc1S(N)(=O)=O
12.7

###

# Tested on: SNB-19 CNS
# Procedure Details: NCI-60 one-dose screen, 48 h (100 = growth as untreated, 0 = no growth, -100 = all killed)
# Reported Conditions: 10 µM unless noted
Compounds without any hit were thinned out: in the full panel of roughly 83,000, 20% have a hit.
Endpoint: growth (%)
State just the number; it will be interpreted in %.

- Compound: "CN(C)CCn1c2ccccc2c2nc3ccc([N+](=O)[O-])cc3nc21"
  Display Unit: "%"
  growth: 4.08
- Compound: "CSc1ccc(NC(=O)c2ccc3nnn(/C(C#N)=C/c4ccccn4)c3c2)cc1"
  Display Unit: "%"
  growth: -73.1
- Compound: "COc1c(F)ccc(C(=O)Nc2ccc3nc(NC(=O)C4CCCN(S(=O)(=O)c5ccc(C(F)(F)F)cc5)C4)sc3c2)c1F (stereo not given)"
  Display Unit: "%"
  growth: 83.8
- Compound: "S=C(Nc1ccc(OCc2nc3ccccc3[nH]2)cc1)NC1CCCCC1"
  Display Unit: "%"
  growth: 94

Which growth is reported for this compound? COc1ccc(-c2nnc3ccc(N/N=C/c4ccc(C)cc4)nn23)cc1
92.6

Now the compound CC(=O)Nc1ccc(-n2cnc3ccc(-c4ccc(O)cc4)cc32)cc1
55.5

# iterate: NS(=O)(=O)c1ccc(-n2cc(-c3cccc(NC(=O)c4ccc(Cl)c(C(F)(F)F)c4)c3)nn2)cc1
32.3

Another compound: O=C1Nc2cc(Cl)ccc2/C1=C/c1cccc(OCc2ccccn2)c1
20.5

Param item: Cc1cc2nc3c([nH]c2cc1C)c1ccc(=O)cc1n3CCN(C)C
38.2

Now this one: COc1ccc(C(=O)/C=C/c2ccc(OCc3ccc(F)cc3)c(OC)c2)cc1OC
15.4
